# System: MDA-MB-231
# assay_info: cell viability relative to vehicle unstimulated control (fraction); higher = more viable cells
# condition_context: pre-treatment time: 18 h then 24 h IFNg/TNF
cell viability overview
Give a plain numeric answer without units written out.

What value of measured cell viability is listed for C=C1CC[C@@H]2[C@](C)(CO)[C@H](O)CC[C@@]2(C)[C@H]1C/C=C1\C=COC1=O [Dehydroandrographolide] (compound dose: 10 uM) ?
0.984

Let's switch to this molecule now.
What value of measured cell viability is listed for CC(CCC(OC1OC(COC2OC(CO)C(O)C(O)C2O)C(O)C(O)C1OC1OC(CO)C(O)C(O)C1O)C(C)(C)O)C1CCC2(C)C3CC=C4C(CCC(OC5OC(COC6OC(CO)C(O)C(O)C6O)C(O)C(O)C5O)C4(C)C)C3(C)C(=O)CC12C (configuration not stated) [11-oxo-mogroside V] (compound dose: 10 uM) ?
1.1

---

# System: MDA-MB-231
# assay_info: kynurenine production, fold change vs DMSO IFNg/TNF control; higher = more kynurenine produced (less inhibition)
# condition_context: pre-treatment time: 18 h then 24 h IFNg/TNF
measured_quantity: kynurenine production

Illustrative cases are given below, each with its answer.
MDA-MB-231 / kynurenine production / COC(=O)C1=CO[C@@H](O[C@@H]2O[C@H](CO)[C@@H](O)[C@H](O)[C@H]2O)[C@@H]2[C@@H](C)[C@@H](O)C[C@H]12 [Loganin] (compound dose: 10 uM) : value?
1.02

MDA-MB-231 / kynurenine production / CC(=O)O[C@]12CCC(C)=CC[C@]13CC[C@H]2[C@@](C)(/C=C/C=C(\C)C(=O)O)OC3=O [Pseudolaric Acid A] (compound dose: 10 uM) : value?
0.449

New cases:
MDA-MB-231 / kynurenine production / C=C[C@]1(C)C[C@@H](OC(=O)CO)[C@]2(C)[C@H](C)CC[C@]3(CCC(=O)[C@@H]32)[C@@H](C)[C@@H]1O [Pleuromutilin] (compound dose: 10 uM) : value?
0.861

---

# System: MDA-MB-231
# assay_info: cell viability relative to vehicle unstimulated control (fraction); higher = more viable cells
# condition_context: pre-treatment time: 18 h then 24 h IFNg/TNF
measured_quantity: cell viability

What value of measured cell viability is listed for C[C@H](CC[C@@H](O[C@@H]1O[C@H](CO[C@@H]2O[C@H](CO)[C@@H](O)[C@H](O)[C@H]2O)[C@@H](O)[C@H](O)[C@H]1O[C@@H]1O[C@H](CO)[C@@H](O)[C@H](O)[C@H]1O)C(C)(C)O)[C@H]1CC[C@@]2(C)[C@@H]3CC=C4[C@@H](CC[C@H](O[C@@H]5O[C@H](CO[C@@H]6O[C@H](CO)[C@@H](O)[C@H](O)[C@H]6O)[C@@H](O)[C@H](O)[C@H]5O)C4(C)C)[C@]3(C)[C@H](O)C[C@]12C [Mogroside V] (compound dose: 10 uM) ?
0.989

---

# Tested on: MDA-MB-231
# assay_info: kynurenine production, fold change vs DMSO IFNg/TNF control; higher = more kynurenine produced (less inhibition)
# condition_context: pre-treatment time: 18 h then 24 h IFNg/TNF
kynurenine production overview
Give a plain numeric answer without units written out.

Illustrative cases are given below, each with its answer.
What value of measured kynurenine production is listed for CC(C)C12CCC(C)(CC1)O2 [1,4-Cineole] (compound dose: 10 uM) ?
0.863

What value of measured kynurenine production is listed for C/C1=C\CCC2=C[C@@H](OC2=O)c2c(C)coc2C1 [Linderalactone] (compound dose: 10 uM) ?
0.815

What value of measured kynurenine production is listed for C=C1CC[C@@H]2[C@](C)(CO)[C@H](O)CC[C@@]2(C)[C@@H]1/C=C/C1=CCOC1=O [14-Deoxy-11,12-didehydroandrographolide] (compound dose: 10 uM) ?
0.921

New cases:
What value of measured kynurenine production is listed for C[C@H](CC[C@@H](O[C@@H]1O[C@H](CO[C@@H]2O[C@H](CO)[C@@H](O)[C@H](O)[C@H]2O)[C@@H](O)[C@H](O)[C@H]1O[C@@H]1O[C@H](CO)[C@@H](O)[C@H](O)[C@H]1O)C(C)(C)O)[C@H]1CC[C@@]2(C)[C@@H]3CC=C4[C@@H](CC[C@H](O[C@@H]5O[C@H](CO[C@@H]6O[C@H](CO)[C@@H](O)[C@H](O)[C@H]6O)[C@@H](O)[C@H](O)[C@H]5O)C4(C)C)[C@]3(C)[C@H](O)C[C@]12C [Mogroside V] (compound dose: 10 uM) ?
0.968

What value of measured kynurenine production is listed for CC=C1[C@H](O[C@@H]2O[C@H](CO)[C@@H](O)[C@H](O)[C@H]2O)OC=C(C(=O)OC)[C@H]1CC(=O)OC[C@H]1O[C@@H](OCCc2ccc(O)cc2)[C@H](O)[C@@H](O)[C@@H]1O (stereo in doubt) [Specnuezhenide] (compound dose: 10 uM) ?
0.905
